- target_or_test_system: furin, P09958;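 further: purified furin at 1:10 enzyme:substrate in 50 mM HEPES pH 7.5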
- Sequence (P09958 whole entry): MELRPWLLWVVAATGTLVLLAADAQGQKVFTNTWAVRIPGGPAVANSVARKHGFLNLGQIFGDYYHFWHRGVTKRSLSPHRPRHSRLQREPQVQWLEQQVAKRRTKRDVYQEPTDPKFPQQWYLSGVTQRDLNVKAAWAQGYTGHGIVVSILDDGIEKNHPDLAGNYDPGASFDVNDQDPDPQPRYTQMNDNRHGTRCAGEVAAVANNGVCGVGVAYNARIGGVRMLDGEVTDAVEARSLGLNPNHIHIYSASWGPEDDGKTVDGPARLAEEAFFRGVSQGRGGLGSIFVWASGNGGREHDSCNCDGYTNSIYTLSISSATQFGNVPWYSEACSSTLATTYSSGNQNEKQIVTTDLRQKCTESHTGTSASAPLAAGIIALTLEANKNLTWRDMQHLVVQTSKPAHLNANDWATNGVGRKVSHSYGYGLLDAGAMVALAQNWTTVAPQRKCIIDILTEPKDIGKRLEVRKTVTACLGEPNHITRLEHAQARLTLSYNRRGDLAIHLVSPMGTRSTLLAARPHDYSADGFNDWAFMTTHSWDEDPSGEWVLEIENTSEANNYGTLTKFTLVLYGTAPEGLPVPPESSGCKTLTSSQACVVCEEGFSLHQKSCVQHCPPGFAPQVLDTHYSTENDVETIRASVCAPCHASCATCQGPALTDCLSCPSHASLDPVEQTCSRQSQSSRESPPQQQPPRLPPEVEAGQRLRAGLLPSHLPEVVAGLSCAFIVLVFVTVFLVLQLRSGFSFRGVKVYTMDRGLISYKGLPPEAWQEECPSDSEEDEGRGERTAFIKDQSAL
- assay_explanation: furin cleavage Z-score vs untreated control; higher = more cleavage, active = 3.5 or more, inactive = 1 or less, 8 variable residues between constant flanks
- assay_setup: 30 min
This is one part of the list. How many sequences the whole screen found active is unknown.
Pick from active, inactive when you respond.

For orientation, consider the following solved cases.
CAYLSRVARSAGNASASA [FS-738] : active
CASTPCSAALAGNASASA [HC2543] : inactive
CAPVLRGQAGAGNASASA [FS-3180] : inactive
CARRKRHDIAAGNASASA [FS-3053] : active
CAVYEAADAIAGNASASA [HC267] : inactive
CARQKRILVNAGNASASA [FS-1768] : inactive
CALQKRSSRHAGNASASA [FS-2631] : active
CAQLSAPSLKAGNASASA [HC1263] : inactive

Shifting focus to the sequence that follows.
Which result was noted for this sequence in the test: CAQTKQSGENAGNASASA [HC948]
inactive

Every entry's value here was drawn from the supplement of paper PMC3545927.
